- measured_on: ZAP-70 (Homo sapiens)
- Construct: endogenous in cells
- Sequence (P43403 whole entry): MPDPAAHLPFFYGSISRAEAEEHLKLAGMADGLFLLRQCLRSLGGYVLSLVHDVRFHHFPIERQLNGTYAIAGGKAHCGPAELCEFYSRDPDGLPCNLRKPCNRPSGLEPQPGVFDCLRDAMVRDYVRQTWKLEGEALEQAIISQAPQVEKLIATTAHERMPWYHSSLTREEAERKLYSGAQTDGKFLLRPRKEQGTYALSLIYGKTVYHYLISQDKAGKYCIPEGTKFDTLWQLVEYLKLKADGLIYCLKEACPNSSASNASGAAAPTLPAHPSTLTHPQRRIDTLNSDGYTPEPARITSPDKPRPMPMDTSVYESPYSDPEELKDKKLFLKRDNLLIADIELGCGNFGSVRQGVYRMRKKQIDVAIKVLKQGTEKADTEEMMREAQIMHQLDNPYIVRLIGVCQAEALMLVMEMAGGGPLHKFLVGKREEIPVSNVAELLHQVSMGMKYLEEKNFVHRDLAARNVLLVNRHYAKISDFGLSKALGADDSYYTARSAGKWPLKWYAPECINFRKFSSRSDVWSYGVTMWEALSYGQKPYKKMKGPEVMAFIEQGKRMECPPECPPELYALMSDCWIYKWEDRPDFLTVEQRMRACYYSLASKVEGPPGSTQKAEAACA
- experiment_summary: ZAP-70 kinobeads assay
- study_conditions: cell lysate
Structures can show the parent of a compound that is named as a salt.
metric_name: IC50

[
  {
    "molecule": "COc1ccc(Nc2nc(Nc3ccncc3F)ncc2Cl)c(NS(C)(=O)=O)c1",
    "metric_name": "IC50",
    "result": "100 to 1000 nM"
  },
  {
    "molecule": "COc1ccc(Nc2nc(Nc3cc(OCCO)ccc3OC)ncc2F)c(NS(C)(=O)=O)c1",
    "metric_name": "IC50",
    "result": "100 to 1000 nM"
  },
  {
    "molecule": "COc1ccc(OCCO)cc1Nc1ncc(Cl)c(Nc2cccc(F)c2NS(C)(=O)=O)n1",
    "metric_name": "IC50",
    "result": "100 to 1000 nM"
  },
  {
    "molecule": "COc1ccc(Nc2nc(Nc3cnc(OCCO)cc3C)ncc2Cl)c(NS(C)(=O)=O)c1",
    "metric_name": "IC50",
    "result": "100 to 1000 nM"
  },
  {
    "molecule": "COc1ccc(Nc2nc(Nc3ccc(F)cc3C)ncc2Cl)c(NS(C)(=O)=O)c1",
    "metric_name": "IC50",
    "result": "100 to 1000 nM"
  },
  {
    "molecule": "COc1ccc(Nc2nc(Nc3cc(C)ccc3OC)ncc2Cl)c(NS(C)(=O)=O)c1",
    "metric_name": "IC50",
    "result": "100 to 1000 nM"
  },
  {
    "molecule": "COc1ccc(Nc2nc(Nc3cc(CCCO)ccc3OC)ncc2Cl)c(NS(C)(=O)=O)c1",
    "metric_name": "IC50",
    "result": "100 to 1000 nM"
  },
  {
    "molecule": "COc1ccc(Nc2nc(Nc3cc(OCCCO)ccc3C)ncc2Cl)c(NS(C)(=O)=O)c1",
    "metric_name": "IC50",
    "result": "100 to 1000 nM"
  },
  {
    "molecule": "CCc1ccccc1Nc1ncc(Br)c(Nc2ccccc2NS(C)(=O)=O)n1 [Example 19, hydrochloride]",
    "metric_name": "IC50",
    "result": "1000 to 10000 nM"
  },
  {
    "molecule": "COc1ccc(Nc2nc(Nc3cnc(O)cc3OC)ncc2Cl)c(NS(C)(=O)=O)c1",
    "metric_name": "IC50",
    "result": "≤ 100 nM"
  },
  {
    "molecule": "COc1ccccc1Nc1ncc(Br)c(Nc2ccccc2NS(C)(=O)=O)n1 [Example 21, hydrochloride]",
    "metric_name": "IC50",
    "result": "100 to 1000 nM"
  },
  {
    "molecule": "COc1ccc(Nc2nc(Nc3ccc(C)cc3OC)ncc2Cl)c(NS(C)(=O)=O)c1 [Example 62, hydrochloride]",
    "metric_name": "IC50",
    "result": "100 to 1000 nM"
  },
  {
    "molecule": "COc1ccc(Nc2nc(Nc3ccnc(C)c3C)ncc2Cl)c(NS(C)(=O)=O)c1",
    "metric_name": "IC50",
    "result": "100 to 1000 nM"
  }
]
